target: DNA topoisomerase 2-alpha (Homo sapiens) (UniProt P11388); test: Poison activity at recombinant human topoisomerase-2alpha expressed in Saccharomyces cerevisiae JEL1 harboring topoisomerase1 deletion mutant assessed as increase in double stranded DNA cleavage at 1 mM using supercoiled pBR322 DNA as substrate preincubated for 1 to 5 mins followed by substrate addition measured after 6 mins by ethidium bromide staining based agarose gel electrophoresis
Sequence (P11388 whole entry): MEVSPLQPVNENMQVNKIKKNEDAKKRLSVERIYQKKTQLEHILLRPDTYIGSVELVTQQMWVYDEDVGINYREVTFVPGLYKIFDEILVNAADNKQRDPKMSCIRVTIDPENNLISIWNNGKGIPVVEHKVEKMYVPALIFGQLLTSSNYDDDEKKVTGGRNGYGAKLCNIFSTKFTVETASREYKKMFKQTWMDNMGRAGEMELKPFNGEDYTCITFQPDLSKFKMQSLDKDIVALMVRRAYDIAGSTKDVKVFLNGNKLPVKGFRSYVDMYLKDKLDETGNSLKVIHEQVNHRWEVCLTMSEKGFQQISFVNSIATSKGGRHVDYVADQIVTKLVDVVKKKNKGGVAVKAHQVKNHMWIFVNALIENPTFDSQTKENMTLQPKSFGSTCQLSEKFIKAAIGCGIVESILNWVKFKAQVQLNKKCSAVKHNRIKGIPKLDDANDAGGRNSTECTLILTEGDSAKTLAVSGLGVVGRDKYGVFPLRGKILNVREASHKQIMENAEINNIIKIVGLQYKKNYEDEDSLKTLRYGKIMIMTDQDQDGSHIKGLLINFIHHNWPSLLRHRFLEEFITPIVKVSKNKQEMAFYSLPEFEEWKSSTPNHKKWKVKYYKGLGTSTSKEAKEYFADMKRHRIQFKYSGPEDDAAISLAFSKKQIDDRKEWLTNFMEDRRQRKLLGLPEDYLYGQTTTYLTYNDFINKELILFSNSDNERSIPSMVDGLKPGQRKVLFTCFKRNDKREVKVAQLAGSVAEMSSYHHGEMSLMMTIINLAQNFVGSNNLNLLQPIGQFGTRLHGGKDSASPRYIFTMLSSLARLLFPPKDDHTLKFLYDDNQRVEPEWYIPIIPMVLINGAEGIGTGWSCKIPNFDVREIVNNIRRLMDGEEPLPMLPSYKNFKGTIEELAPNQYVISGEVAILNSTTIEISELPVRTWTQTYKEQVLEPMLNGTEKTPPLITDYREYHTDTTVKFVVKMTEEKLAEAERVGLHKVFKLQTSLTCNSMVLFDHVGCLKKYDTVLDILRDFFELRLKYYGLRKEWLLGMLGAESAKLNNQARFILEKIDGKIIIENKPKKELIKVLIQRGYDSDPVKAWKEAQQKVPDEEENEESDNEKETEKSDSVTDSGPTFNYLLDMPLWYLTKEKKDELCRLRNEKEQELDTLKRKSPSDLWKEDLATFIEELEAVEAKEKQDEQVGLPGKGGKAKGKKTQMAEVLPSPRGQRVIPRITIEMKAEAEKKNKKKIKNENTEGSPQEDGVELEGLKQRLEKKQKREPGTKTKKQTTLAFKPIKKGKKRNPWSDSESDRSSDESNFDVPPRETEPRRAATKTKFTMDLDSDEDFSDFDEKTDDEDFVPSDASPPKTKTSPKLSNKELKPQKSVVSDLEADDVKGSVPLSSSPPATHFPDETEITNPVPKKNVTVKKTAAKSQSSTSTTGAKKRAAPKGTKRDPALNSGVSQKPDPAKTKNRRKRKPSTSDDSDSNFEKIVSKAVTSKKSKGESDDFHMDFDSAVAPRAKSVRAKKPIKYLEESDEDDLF
Active and inactive are the calls of the source. No cut-off for these calls is given here.

>  <compound>
Nc1c2c(nc3ccc(Cl)cc13)CC(C(F)(F)F)CC2=O (centres undefined)

>  <Activity>
Active

$$$$
>  <compound>
Cc1ccc2c(N)c3c(nc2c1)CC(C(F)(F)F)CC3=O (centres undefined)

>  <Activity>
Active

$$$$
>  <compound>
Nc1c2c(nc3ccc(Br)cc13)CC(C(F)(F)F)CC2=O (centres undefined)

>  <Activity>
Active

$$$$
>  <compound>
Nc1c2c(nc3ccccc13)CC(C(F)(F)F)CC2=O (centres undefined)

>  <Activity>
Active

$$$$
